Reference for the values: paper PMC12529666

target: AGO2 L192P (Homo sapiens, UniProt Q9UKV8 1-859, L192P;S387D;S824A;S828D;S831D;S834A); test: RNA Bind-n-Seq (nitrocellulose filter binding and sequencing); miR-122 guide loaded in AGO2; 60 min incubation; 30 mM Tris pH 8.0, 100 mM potassium acetate, 2 mM magnesium acetate, 0.5 mM TCEP, 0.005% NP-40, 0.01 mg/ml yeast tRNA; 3 nM AGO2-miR-122, 100 nM RNA library; 60; high values mean tight binding; conditions: protein: recombinant; tags: His6 (N-terminal, pFastBac HTA)
Sequence (Q9UKV8 whole entry L192P/S387D/S824A/S828D/S831D/S834A): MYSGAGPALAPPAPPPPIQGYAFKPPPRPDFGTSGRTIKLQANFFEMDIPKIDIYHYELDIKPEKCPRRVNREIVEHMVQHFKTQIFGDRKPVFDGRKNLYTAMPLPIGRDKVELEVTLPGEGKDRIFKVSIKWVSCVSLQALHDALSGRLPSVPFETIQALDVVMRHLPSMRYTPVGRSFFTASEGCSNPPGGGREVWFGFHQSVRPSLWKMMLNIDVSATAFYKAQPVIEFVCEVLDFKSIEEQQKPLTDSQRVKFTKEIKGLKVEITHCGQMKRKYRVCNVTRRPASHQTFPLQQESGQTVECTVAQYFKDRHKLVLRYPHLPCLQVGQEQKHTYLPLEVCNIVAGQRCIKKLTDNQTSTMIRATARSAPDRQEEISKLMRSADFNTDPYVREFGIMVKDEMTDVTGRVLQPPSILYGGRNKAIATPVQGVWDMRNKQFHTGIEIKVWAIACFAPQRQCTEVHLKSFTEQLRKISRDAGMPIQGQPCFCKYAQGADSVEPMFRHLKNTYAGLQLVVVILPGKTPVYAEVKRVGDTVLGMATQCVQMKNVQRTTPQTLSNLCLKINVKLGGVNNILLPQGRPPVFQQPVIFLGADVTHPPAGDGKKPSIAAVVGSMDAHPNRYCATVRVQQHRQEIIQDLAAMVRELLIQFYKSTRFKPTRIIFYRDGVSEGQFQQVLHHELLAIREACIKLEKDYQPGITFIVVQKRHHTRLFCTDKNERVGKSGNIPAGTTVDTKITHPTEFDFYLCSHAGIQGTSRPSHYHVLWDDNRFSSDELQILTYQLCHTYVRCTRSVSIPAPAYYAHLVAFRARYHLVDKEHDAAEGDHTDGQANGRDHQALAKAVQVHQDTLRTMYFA
readout: binding signal

Look at this binder and give its reported binding signal. GTACTCCG (ssRNA, constant regions annealed to DNA blockers; guide miR-122 5' phosphate) RNA 1: GAGUUCUACAGUCCGACGAUCCCAACGUACUCCGCACCUGGAAUUCUCGGGUGCCAA RNA 2: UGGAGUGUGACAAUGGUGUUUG DNA 1: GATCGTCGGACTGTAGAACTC DNA 2: TTGGCACCCGAGAATTCCA
0.802 fold enrichment over input

Look at this binder and give its reported binding signal. GTGCCCTA (ssRNA, constant regions annealed to DNA blockers; guide miR-122 5' phosphate) RNA 1: GAGUUCUACAGUCCGACGAUCCCAACGUGCCCUACACCUGGAAUUCUCGGGUGCCAA RNA 2: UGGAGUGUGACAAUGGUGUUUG DNA 1: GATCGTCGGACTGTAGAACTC DNA 2: TTGGCACCCGAGAATTCCA
0.458 fold enrichment over input

Look at this binder and give its reported binding signal. GTACCTTA (ssRNA, constant regions annealed to DNA blockers; guide miR-122 5' phosphate) RNA 1: GAGUUCUACAGUCCGACGAUCCCAACGUACCUUACACCUGGAAUUCUCGGGUGCCAA RNA 2: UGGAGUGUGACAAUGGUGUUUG DNA 1: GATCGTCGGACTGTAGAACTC DNA 2: TTGGCACCCGAGAATTCCA
0.445 fold enrichment over input

Look at this binder and give its reported binding signal. GCGTCCCG (ssRNA, constant regions annealed to DNA blockers; guide miR-122 5' phosphate) RNA 1: GAGUUCUACAGUCCGACGAUCCCAACGCGUCCCGCACCUGGAAUUCUCGGGUGCCAA RNA 2: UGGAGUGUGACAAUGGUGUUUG DNA 1: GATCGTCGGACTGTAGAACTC DNA 2: TTGGCACCCGAGAATTCCA
0.366 fold enrichment over input

Look at this binder and give its reported binding signal. GTGTTCTG (ssRNA, constant regions annealed to DNA blockers; guide miR-122 5' phosphate) RNA 1: GAGUUCUACAGUCCGACGAUCCCAACGUGUUCUGCACCUGGAAUUCUCGGGUGCCAA RNA 2: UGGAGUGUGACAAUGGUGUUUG DNA 1: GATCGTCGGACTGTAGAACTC DNA 2: TTGGCACCCGAGAATTCCA
0.352 fold enrichment over input

Look at this binder and give its reported binding signal. GTATTTTG (ssRNA, constant regions annealed to DNA blockers; guide miR-122 5' phosphate) RNA 1: GAGUUCUACAGUCCGACGAUCCCAACGUAUUUUGCACCUGGAAUUCUCGGGUGCCAA RNA 2: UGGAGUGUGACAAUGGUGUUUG DNA 1: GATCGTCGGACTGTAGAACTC DNA 2: TTGGCACCCGAGAATTCCA
0.384 fold enrichment over input

Look at this binder and give its reported binding signal. ATACCTTA (ssRNA, constant regions annealed to DNA blockers; guide miR-122 5' phosphate) RNA 1: GAGUUCUACAGUCCGACGAUCCCAACAUACCUUACACCUGGAAUUCUCGGGUGCCAA RNA 2: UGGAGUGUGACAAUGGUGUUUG DNA 1: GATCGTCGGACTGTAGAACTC DNA 2: TTGGCACCCGAGAATTCCA
0.475 fold enrichment over input

Look at this binder and give its reported binding signal. ATGCTTCA (ssRNA, constant regions annealed to DNA blockers; guide miR-122 5' phosphate) RNA 1: GAGUUCUACAGUCCGACGAUCCCAACAUGCUUCACACCUGGAAUUCUCGGGUGCCAA RNA 2: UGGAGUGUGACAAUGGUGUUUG DNA 1: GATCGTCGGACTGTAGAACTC DNA 2: TTGGCACCCGAGAATTCCA
0.573 fold enrichment over input

Look at this binder and give its reported binding signal. GTATTCCA (ssRNA, constant regions annealed to DNA blockers; guide miR-122 5' phosphate) RNA 1: GAGUUCUACAGUCCGACGAUCCCAACGUAUUCCACACCUGGAAUUCUCGGGUGCCAA RNA 2: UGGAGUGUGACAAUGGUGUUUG DNA 1: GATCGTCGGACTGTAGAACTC DNA 2: TTGGCACCCGAGAATTCCA
0.545 fold enrichment over input
